Every entry's value here was drawn from PubChem BioAssay (NCI).

test system: A549/ATCC NSCLC; assay: NCI-60 one-dose screen, 48 h; settings: 10 µM unless noted
This is part of a sample that, as a whole, favours compounds with a hit. Of some 83,000 tested, about 20% had one in any assay. Activity calls are given as the source filed them. How the source made its calls: active means growth percent below 10; inactive means the rest.
Answer with one of the outcomes given here: 1 = active, 0 = inactive

Before answering, review these 2 worked examples.
[[record]]
compound = "c1ccc(CNc2nc(Nc3ccccc3)nc3ccccc23)cc1"
class_assignment = 0

[[record]]
compound = "Cc1ccc(N=NC2C(=O)N(c3ccc(Cl)cc3)N(c3ccc(Cl)cc3)C2=O)cc1"
class_assignment = 0


Query: # outcome recorded in this test, key = CC(C)C[C@H](C(=O)N[C@H](C(N)=O)C(C)C)N1CC=CCN(OCc2ccccc2)S1(=O)=O
Response: 0

Query: Test call for this compound, please: COc1ccc(Nc2cc(C)nc(NCc3ccccc3)n2)cc1
Response: 1

Query: For CCOc1cc(Cl)c(C(C)NC(=O)c2cccc(OC)c2)cc1OCC (stereo not drawn) , what call appears in the results of this test?
Response: 0

Query: // outcome(item) with item = COc1cc(C2C3=C(COC3=O)N(CCO)c3cc4c(cc32)OCCO4)cc(OC)c1O (stereo not drawn)
Response: 0

Query: Hello, I am checking results. What call was entered for COc1ccc2occ(C3=C(c4c[nH]c5ccccc45)C(=O)NC3=O)c2c1 ?
Response: 0

====

test system: NCI-H23 lung; experiment: NCI-60 one-dose screen, 48 h; conditions: 10 µM unless noted
This is part of a sample that, as a whole, favours compounds with a hit. Of some 83,000 tested, about 20% had one in any assay. Active and inactive are the calls of the source. The calls were made as follows: active = growth percent below 10; inactive = the rest.
Hi! Could you answer with just one of these? Y for active, N for inactive

// below: answered compounds
[[record]]
compound = "COc1cc(NC(=O)CCSc2nc3ccccc3c(=O)n2Cc2ccccc2)cc(OC)c1OC"
class_assignment = "N"

[[record]]
compound = "CCOc1cc(Cl)c(C(C)NC(=O)c2cccc(OC)c2)cc1OCC (stereo unspecified)"
class_assignment = "Y"

[[record]]
compound = "CCCCNc1nc(NC(C)(C)C)nc(NC(C)(C)C)n1"
class_assignment = "N"

[[record]]
compound = "Cc1ccc(N=NC2C(=O)N(c3ccc(Cl)cc3)N(c3ccc(Cl)cc3)C2=O)cc1"
class_assignment = "N"

[[record]]
compound = "FC(F)(F)c1cccc(CNC2CCN(CCc3ccccc3)CC2)c1"
class_assignment = "N"


Query: In this assay, the call recorded for COc1cc(/C=C2\CCC/C(=C\c3cc(CN4CCOCC4)c(O)c(OC)c3)C2=O)cc(CN2CCOCC2)c1O was what?
Response: N

Query: Would you mind telling me which call this test gave Nc1n[nH]c2ccc([C@@H]3Nc4ccc5[nH]ncc5c4[C@H]4[C@H]5CCC(C5)[C@H]43)cc12 ?
Response: N

Query: For O=C(Nc1ccc(F)cc1F)c1cc(Cl)ccc1O , which call appears in the assay record?
Response: Y

Query: Which outcome was assigned to CCCCN1CCN(c2ccc3nc(-c4ccc5nc(-c6ccc(OC)c(OC)c6)[nH]c5c4)[nH]c3c2)CC1 in this test?
Response: Y

Query: Per the records of this test, what outcome belongs to O=C(CN1C=NC2C(N3CCOCC3)=NC=NC21)c1ccc(Br)cc1 (stereo unspecified) ?
Response: N

Query: Name the outcome recorded for O=C(Nc1ccc(F)cc1F)c1cc(Br)ccc1O in the assay.
Response: Y
